Hey, just so you know, these numbers are from patent US20180185510A1.

Target system: T1, B7H3 on B7H3-positive human tumour cells (A498, MCF-7, Caki-2, 786-0) (human, UniProt Q5ZPR3 29-534)
T1 sequence (looked up): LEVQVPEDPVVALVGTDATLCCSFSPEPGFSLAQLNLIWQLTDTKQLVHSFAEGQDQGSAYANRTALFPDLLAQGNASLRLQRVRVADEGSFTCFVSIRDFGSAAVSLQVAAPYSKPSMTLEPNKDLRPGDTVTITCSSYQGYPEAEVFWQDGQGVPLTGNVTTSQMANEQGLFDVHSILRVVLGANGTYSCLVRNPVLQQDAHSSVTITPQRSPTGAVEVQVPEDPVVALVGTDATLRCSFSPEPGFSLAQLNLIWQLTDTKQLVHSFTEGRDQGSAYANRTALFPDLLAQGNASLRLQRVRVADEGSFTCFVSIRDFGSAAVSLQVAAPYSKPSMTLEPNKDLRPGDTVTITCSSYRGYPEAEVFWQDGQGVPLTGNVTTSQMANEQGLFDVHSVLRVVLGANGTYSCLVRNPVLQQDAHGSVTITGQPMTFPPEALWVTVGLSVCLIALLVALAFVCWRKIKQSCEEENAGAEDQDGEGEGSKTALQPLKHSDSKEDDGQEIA
Method notes: cell-based or functional assay
Quantity kind: IC50 [M] CTG, A498 cells (B7H3-positive) (M)
Numeric only. Scale: M

binder="Example 240L2: anti-B7H3 AK1B (TPP-5706) coupled with Intermediate F240 (antibody, human IgG1, kappa, V domains shown, KSP inhibitor-linker (Intermediate F240) on cysteine residues of the partially reduced antibody, sites not given; drug/mAb ratio 3.5) VH: QVQLQQPGAELVKPGASVKMSCKASGYTFTIYNVHWIKQTPGQGLEWMGTIFPGNGDTSYNQKFKDKATLTTDKSSKTAYMQLNSLTSEDSAVYYCARWDDGNVGFAHWGQGTLVTVSA VL: DIQMTQSPASLSASVGETVTITCRASENINNYLTWFQQKQGKSPQLLVYHAKTLAEGVPSRFSGSGSGTQFSLKINSLQPEDFGSYYCQHHYGTPPTFGGGTKLEIKR" numeric_result=7.49e-10

Please examine the following record next.
Give the reported value of IC50 [M] CTG, A498 cells (B7H3-positive) for this record: Example 173L1: anti-B7H3 AK1A (TPP-3803) coupled with Intermediate F173 (antibody, human IgG1, kappa, V domains shown, KSP inhibitor-linker (Intermediate F173) on cysteine residues of the partially reduced antibody, sites not given; drug/mAb ratio 3.4) VH: QVKLQQSGAELVKPGASVKLSCKASGYTFTNYDINWVRQRPEQGLEWIGWIFPGDGSTQYNEKFKGKATLTTDTSSSTAYMQLSRLTSEDSAVYFCARQTTATWFAYWGQGTTVTVSS VL: DIELTQSPTTLSVTPGDRVSLSCRASQSISDYLHWYQQKSHESPRLLIKYASQSISGIPSRFSGSGSGSDFTLSINSVEPEDVGVYYCQNGHSFPLTFGAGTKLELKR
6e-07
